Ref: patent US20150266977A1

# Test system: T1, recombinant rat sclerostin (rat, UniProt Q99P67 24-213, limits assumed)
# T1 sequence (looked up): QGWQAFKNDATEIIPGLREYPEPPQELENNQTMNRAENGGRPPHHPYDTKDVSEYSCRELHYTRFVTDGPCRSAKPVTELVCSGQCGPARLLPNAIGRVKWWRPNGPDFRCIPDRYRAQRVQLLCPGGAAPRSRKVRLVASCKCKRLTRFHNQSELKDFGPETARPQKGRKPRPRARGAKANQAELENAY
# Test summary: SPR
# Protocol: The binding of antibodies or anti-sclerostin-TNF DVD to purified recombinant human, cynomolgus monkey (cyno), rat and mouse sclerostin and TNFα was determined by surface plasmon resonance-based measurements with a Biacore T100 or T200 instruments (GE Healthcare Life Sciences, Piscataway, N.J., USA) using running HBS-EP+ (10 mM HEPES [pH 7.4], 150 mM NaCl, 3 mM EDTA, and 0.005% surfactant P20) containing additional 150 mM NaCl, and/or 10 mg/ml carboxymethyl dextran, 0.1 mg/ml BSA at 25° C. […]
Provide the recorded pKd for the entries that follow.
Please note pKd is a logarithmic value: minus log10 of concentration in mol/L. Answer with that number alone.

pKd lookup needed for AE10-6-AM3 (antibody, V domains shown, converted into IgG) VH: EVQLVQSGAEVKKPGASVKVSCKVSGYTLTELSMHWVRQAPGKGLEWMGGFDPEDGETIYAQKFQGRVTMTEDTSTDTAYMELSSLRSEDTAVYYCATDSAGYWYKFFQHWGQGTLVTVSS VL: QAVVTQEPSLTVSPGGTVTLTCGSSTGAVTIDHYPYWFQQKPGQAPRTLISDTDDKHSWTPARFSGSLLGGKAALTLSGAQPEDEAEYYCLLDYGGTFVFGGGTKLTVL , thanks. 11.00

pKd lookup needed for AE10-6-AM2 (antibody, V domains shown, converted into IgG; also called rHC + LC S4 clone 102) VH: EVQLVQSGAEVKKPGASVKVSCKVSGYTLTELSMHWVRQAPGKGLEWMGGFDPEAGETIYAQKFQGRVTMTEDTSTDTAYMELSSLRSEDTAVYYCATDGELYWYKFFQHWGQGTLVTVSS VL: QAVVTQEPSLTVSPGGTVTLTCGSSTGAVTIWHYPYWFQQKPGQAPRTLISDTNDKHSWTPARFSGSLLGGKAALTLSGAQPEDEAEYYCLLDYGGSFVFGGGTKLTVL , thanks. 9.92

pKd lookup needed for AE10-6-AM5 (antibody, V domains shown, converted into IgG) VH: EVQLVQSGAEVKKPGASVKVSCKVSGYTLSELSMHWVRQAPGKGLEWMGGFDPEGGETIYAQKFQGRVTMTEDTSTDTAYMELSSLRSEDTAVYYCATDAGGYWYKFFQHWGQGTLVTVSS VL: QAVVTQEPSLTVSPGGTVTLTCGSSTGTVTIDHYPYWFQQKPGQAPRTLISDTDDKHSWTPARFSGSLLGGKAALTLSGAQPEDEAEYYCLLFYGGTVVFGGGTKLTVL , thanks. 10.25
